# System: SKOV3 cell line
# method.notes: CellTiter-Blue cell viability assay, single agent, SKOV3
# Type: cell-based
# assay.setup: Homo sapiens, SK-OV-3, SKOV3 ovarian cancer cells, 72 hours treatment
quantity.kind: IC50 (µM)

Consider the reported IC50 for these compounds:
CCC(C(=O)Nc1ccc(C(=O)NO)cc1)c1ccc(Br)cc1 (stereo not drawn) [Compound 25]: 0.1
CC(C)(C(=O)Nc1ncc(C(=O)NO)s1)c1ccccc1 [Compound 4]: 1.3
O=C(CCc1ccccc1)Nc1ncc(C(=O)NO)s1 [Compound 6]: 0.5

a: CCC(C(=O)Nc1ccc(C(=O)NO)cc1)c1ccc(-c2ccccc2)cc1 (stereo not drawn) [Compound 26]
b: CC(C)C(C(=O)Nc1ccc(C(=O)NO)cc1)c1ccc(Cl)cc1 (stereo not drawn) [Compound 12]
c: CC(C)C(C(=O)Nc1ncc(C(=O)NO)s1)c1ccc(Cl)cc1 (stereo not drawn) [Compound 10]
d: CCC(C(=O)Nc1ncc(C(=O)NO)s1)c1ccccc1OC (stereo not drawn) [Compound 23]
Request: Exam item: list the entries in increasing order of IC50. Quick reminder: the answer is the labels in the order asked.
Result: a, c, b, d
(a: 0.0011 µM, c: 0.004 µM, b: 0.04 µM, d: 2.3 µM)

I: CCC(C(=O)Nc1ncc(C(=O)NO)s1)c1ccccc1 (stereo not drawn) [Compound 2]
II: COCCC(C(=O)Nc1ncc(C(=O)NO)s1)c1ccc(-c2ccccc2)cc1 (stereo not drawn) [Compound 24]
Request: // pick larger IC50 from pair: I vs II Answer format: the label of the selected item.
Result: I
(I: 0.046 µM, II: 0.03 µM)

====

# System: SKOV3 cell line
# method.notes: CellTiter-Blue cell viability assay, single agent, SKOV3
# Type: cell-based
# assay.setup: Homo sapiens, SK-OV-3, SKOV3 ovarian cancer cells, 72 hours treatment
quantity.kind: IC50 (nM)

The cases that follow already have their IC50 on record.
CCC(C(=O)Nc1ncc(C(=O)NO)s1)c1ccc(-c2cncnc2)cc1 (stereo not shown) [Compound 18]: 100
CC(C)(Cc1ccccc1)C(=O)Nc1ncc(C(=O)NO)s1 [Compound 11]: 7500
CCC(C(=O)Nc1ncc(C(=O)NO)s1)c1cccc(F)c1 (stereo not shown) [Compound 20]: 4.3

A: O=C(NO)c1cnc(NC(=O)C2(c3ccccc3)CC2)s1 [Compound 3]
B: COCCC(C(=O)Nc1ncc(C(=O)NO)s1)c1ccccc1 (stereo not shown) [Compound 14]
Request: Lab note: check whether A or B shows the higher recorded IC50. Indicate your choice by writing its label.
Result: A
(A: 4100 nM, B: 80 nM)

I: COCCC(C(=O)Nc1ccc(C(=O)NO)cc1)c1ccccc1 (stereo not shown) [Compound 27]
II: CCC(C(=O)Nc1ncc(C(=O)NO)s1)c1ccc(Br)cc1 (stereo not shown) [Compound 13]
Request: Which of the two gives a bigger number for IC50: I or II ? Record your answer as the label of the chosen record.
Result: I

====

# Test system: SKOV3 cell line
# method.notes: CellTiter-Blue cell viability assay, single agent, SKOV3
# Type: cell-based
# assay.setup: Homo sapiens, SK-OV-3, SKOV3 ovarian cancer cells, 72 hours treatment
pIC50: −log10 of the molar value.
quantity.kind: pIC50

1: CC(C(=O)Nc1ncc(C(=O)NO)s1)c1ccccc1 (stereo not shown)
2: CCC(C(=O)Nc1ncc(C(=O)NO)s1)c1ccc(-c2ccccc2)cc1 (stereo not shown)
3: CCC(C(=O)Nc1ncc(C(=O)NO)s1)c1ccc(F)cc1 (stereo not shown)
4: COC(C(=O)Nc1ncc(C(=O)NO)s1)c1ccccc1 (stereo not shown)
Request: Rank ascending by pIC50. Your reply should list the labels following the order given in the request.
Result: 4, 1, 3, 2
(4: 7.15, 1: 7.52, 3: 8.05, 2: 9.70)

a: CC(C)C(C(=O)Nc1ncc(C(=O)NO)s1)c1ccccc1 (stereo not shown)
b: CC(C)C(C(=O)Nc1ncc(C(=O)NO)s1)c1ccc(O)cc1 (stereo not shown)
c: O=C(Cc1ccccc1)Nc1ncc(C(=O)NO)s1
Request: I would appreciate it if you could sort these 3 compounds by pIC50, starting from the smallest number. Sort and list the labels as requested.
Result: c, a, b

====

# Test system: SKOV3 cell line
# method.notes: CellTiter-Blue cell viability assay, single agent, SKOV3
# Assay type: cell-based
# assay.setup: Homo sapiens, SK-OV-3, SKOV3 ovarian cancer cells, 72 hours treatment
# Protocol: Cell viability in the presence of varying concentrations of the above listed compounds at different time points was used to assess cytotoxicity and the effect of the compounds on cell proliferation. […] Cell viability was measured by the CellTiter-Blue® cell viability assay Promega (Madison, Wis.). […] Fluorescence values were measured at 535/590 nm using a Beckman-Coulter DTX-880 microplate reader. […]
pIC50: −log10 of the molar value.
quantity.kind: pIC50

CCC(C(=O)Nc1ccc(C(=O)NO)cc1)c1ccc(OC)cc1 (stereo not drawn) [Compound 15]: 7.70
CCC(C(=O)Nc1ncc(C(=O)NO)s1)c1cccc(OC)c1 (stereo not drawn) [Compound 22]: 7.52
